measured.target: Human IP6K1 (Homo sapiens)
Construct: GST (N, cleaved yes); made in house; host or cells: C43 E. coli, pGEX-6P-2
experiment.summary: IP6K1 high-throughput screen of the Sigma LOPAC (ADP-Glo Max, single point);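 note: final compound concentration 10µM in 5% DMSO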
Type: biochemical
protocol.conditions: LOPAC single-point screen, ADP-Glo Max raw signal per well
measurement.kind: Raw Signal
The answer should be a number; do not append a unit.

compound	measured.target	Raw Signal
Cl.N[C@@H](CCl)C(=O)O [beta-Chloro-L-alanine hydrochloride]	Human IP6K1 (Homo sapiens)	58972
CC(=O)OCC1=C(C(=O)O)N2C(=O)[C@@H](NC(=O)Cc3cccs3)[C@H]2SC1 [Cephalothin sodium]	Human IP6K1 (Homo sapiens)	58709
CO/N=C(\C(=O)N[C@@H]1C(=O)N2C(C(=O)O)=C(CSc3nc(=O)c(=O)[nH]n3C)CS[C@H]12)c1csc(N)n1 [Ceftriaxone sodium]	Human IP6K1 (Homo sapiens)	55787

Please report Raw Signal for the following compound: O=C1CCc2cc(OCCCCc3nnnn3C3CCCCC3)ccc2N1 58165

Consider the compound O=c1[nH]c(=O)n([C@H]2C[C@H](O)[C@@H](CO)O2)cc1/C=C/Br [(E)-5-(2-Bromovinyl)-2-deoxyuridine] . State its measured Raw Signal. 57888

# return recorded Raw Signal for entry Cl.c1ccc2sc(C3(N4CCCCC4)CCCCC3)cc2c1 [BTCP hydrochloride] 55871

Indicate its recorded Raw Signal; the compound in question is CC(=O)OCC1=C(C(=O)[O-])N2C(=O)[C@@H](NC(=O)CCC[C@@H](N)C(=O)[O-])[C@H]2SC1.[Zn+2] [Cephalosporin C zinc salt] 57645

For CC(C)Cc1ccc([C@H](C)C(=O)O)cc1 [S(+)-Ibuprofen] , write its Raw Signal. 55445

----------
measured.target: Human IP6K1 (Homo sapiens)
Construct: GST (N, cleaved yes); made in house; host or cells: C43 E. coli, pGEX-6P-2
experiment.summary: IP6K1 high-throughput screen of the Sigma LOPAC (ADP-Glo Max, single point);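 note: final compound concentration 10µM in 5% DMSO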
Assay type: biochemical
protocol.conditions: Sigma LOPAC single-point screen; Z-score from plate average and StDev
Counter-ions that a name gives are not always drawn.
measurement.kind: Z-score
Give your answer as a number; write no unit.

Known Z-score results, listed for orientation:
compound	Z-score
Brc1ccc([C@H]2CN3CCSC3=N2)cc1.O=C(O)C(=O)O [S(-)-p-Bromotetramisole oxalate]	0.7006
CC#CCOC(=O)c1c(C)nc2sc3c(c2c1N)CCC(O)C3 (centres unmarked)	0.3705
O=C([O-])CCC(NC(=O)c1ccccc1C(=O)[O-])C(=O)[O-].[Na+].[Na+].[Na+] [Phthalamoyl-L-glutamic acid trisodium]	0.4061
Cc1cc(O)c2c(c1)C(=O)c1cc(O)cc(O)c1C2=O	1.232
N[C@@H](Cn1oc(=O)[nH]c1=O)C(=O)O [(+)-Quisqualic acid]	0.7709
C[N+](C)(C)CCOC(N)=O	0.7834
CC(C)(C(=O)O)c1ccc(C(O)CCCN2CCC(C(O)(c3ccccc3)c3ccccc3)CC2)cc1 (centres unmarked) [Fexofenadine hydrochloride]	0.7238
Fc1ccc(C(c2ccc(F)cc2)N2CCN(C/C=C/c3ccccc3)CC2)cc1 [Flunarizine dihydrochloride]	0.7063

Could you please provide reported Z-score for CP(=O)(O)C1=CCNCC1 ? Thanks! 0.708

Read off the recorded Z-score for CC(C)Cn1c(=O)n(C)c(=O)c2[nH]cnc21 1.305

Recall and state the measured Z-score for CN(C)CCCN1c2ccccc2Sc2ccc(Cl)cc21 [Chlorpromazine hydrochloride] . 1.015

Quick one: give measured Z-score for OCCN1CCN(CCCN2c3ccccc3Sc3ccc(C(F)(F)F)cc32)CC1 [Fluphenazine dihydrochloride] 0.4358

Note Z-score for the compound shown: C[C@@]12C(=O)OC(=O)[C@]1(C)[C@H]1CC[C@@H]2O1 0.5727

----------
measured.target: Human IP6K1 (Homo sapiens)
Construct: GST (N, cleaved yes); made in house; host or cells: C43 E. coli, pGEX-6P-2
experiment.summary: IP6K1 high-throughput screen of the Sigma LOPAC (ADP-Glo Max, single point);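 note: final compound concentration 10µM in 5% DMSO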
Type: biochemical
protocol.conditions: LOPAC single-point screen; Z-score from raw signal with plate average and StDev
Where a name gives a salt, the structure may show the parent alone.
This section presents compounds with their documented Z-score values.
// return just the number, without any unit appended

compound	reported.value
CC(C)C[C@H](NC(=O)[C@@H](O)[C@H](N)Cc1ccccc1)C(=O)O [Bestatin hydrochloride]	-0.2323
C[C@H](O)[C@H](O)[C@H]1CNc2nc(N)[nH]c(=O)c2N1.Cl	-0.4386
N[C@H]1CON=C1O [L-Cycloserine]	-0.2008
C#CCOC(=O)C1=CCCN(C)C1 [Arecaidine propargyl ester hydrobromide]	-0.2913
C[N+]1(C)CCc2cc3c(cc2[C@H]1[C@@H]1OC(=O)c2c1ccc1c2OCO1)OCO3.[Br-] [(-)-Bicuculline methbromide, 1(S), 9(R)]	-0.2785

Tell us which Z-score value is on record for COc1ccc(CCN(C)CCCC(C#N)(c2cc(OC)c(OC)c(OC)c2)C(C)C)cc1OC.Cl (racemic) [(±)-Methoxyverapamil hydrochloride] -0.3195

Specify measured Z-score for Br.C=CCN1CCc2cc(O)c(O)cc2C(c2ccc(O)cc2)C1 (racemic) [(±)-SKF 38393, N-allyl-, hydrobromide] . -0.3664

Supply measured Z-score of CN1[C@@H]2CC[C@H]1C[C@@H](OC(=O)C(CO)c1ccccc1)C2 (stereo partly shown) [Atropine sulfate] in your reply. -0.09777

Retrieve Z-score measured for C[N+]1(C)[C@@H]2C[C@@H](OC(=O)[C@H](CO)c3ccccc3)C[C@H]1[C@@H]1O[C@@H]12 [(-)-Scopolamine methyl bromide] and print it. -0.115

Identify the reported Z-score for the following entry. COc1cc([C@@H]2c3cc4c(cc3[C@@H](O[C@@H]3O[C@@H]5CO[C@@H](C)O[C@H]5[C@H](O)[C@H]3O)[C@H]3COC(=O)[C@H]23)OCO4)cc(OC)c1O [Etoposide] -0.3713

Please supply the value of reported Z-score for the item CCCCCCCCCCC/C=C\C(C)(C)/C=C\CCCC(=O)O [7,7-Dimethyl-(5Z,8Z)-eicosadienoic acid] -0.3544

Provide one value: measured Z-score of CCCN(CCC)CCc1cccc2c1CC(=O)N2 [Ropinirole hydrochloride] -0.3994

Supply reported Z-score belonging to this compound: COc1nc(C)nc(Cl)c1NC1=NCCN1.Cl [Moxonidine hydrochloride] -0.3413

----------
measured.target: Human IP6K1 (Homo sapiens)
Construct: GST (N, cleaved yes); made in house; host or cells: C43 E. coli, pGEX-6P-2
experiment.summary: IP6K1 high-throughput screen of the Sigma LOPAC (ADP-Glo Max, single point);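 note: final compound concentration 10µM in 5% DMSO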
Assay type: biochemical
protocol.conditions: LOPAC single-point screen, Z-score against plate average and StDev
Structures can show the parent of a compound that is named as a salt.
measurement.kind: Z-score
Answer field: number only, no words.

compound	Z-score
O=c1onc2n1-c1cc(Br)ccc1OC2 [NS 2028]	0.06662
CSc1ccc2c(c1)N(CCC1CCCCN1C)c1ccccc1S2 (stereo not shown) [Thioridazine hydrochloride]	0.321

Provide only the value of recorded Z-score for NC(=O)C(=O)O [Sodium Oxamate] 0.3175

Please supply the value of reported Z-score for the item Cl.O=C(O)C1CCCN(CCC=C(c2ccccc2)c2ccccc2)C1 (stereo not shown) [SKF 89976A hydrochloride] 0.2334

Answer with reported Z-score of CCOC(=O)C(C)(C)Oc1ccc(Cl)cc1 [Clofibrate] 0.04542

Determine from records and report Z-score for N[C@H](C(=O)O)[C@H]1C[C@@H]1C(=O)O 0.07879

Output Z-score of CC(C)CN(C)c1nc(N)c(C(=O)N=C(N)N)nc1Cl [5-(N-Methyl-N-isobutyl)amiloride] -0.0761

----------
measured.target: Human IP6K1 (Homo sapiens, UniProt Q92551)
Construct: GST (N, cleaved yes); made in house; host or cells: C43 E. coli, pGEX-6P-2
Sequence (Q92551 whole entry): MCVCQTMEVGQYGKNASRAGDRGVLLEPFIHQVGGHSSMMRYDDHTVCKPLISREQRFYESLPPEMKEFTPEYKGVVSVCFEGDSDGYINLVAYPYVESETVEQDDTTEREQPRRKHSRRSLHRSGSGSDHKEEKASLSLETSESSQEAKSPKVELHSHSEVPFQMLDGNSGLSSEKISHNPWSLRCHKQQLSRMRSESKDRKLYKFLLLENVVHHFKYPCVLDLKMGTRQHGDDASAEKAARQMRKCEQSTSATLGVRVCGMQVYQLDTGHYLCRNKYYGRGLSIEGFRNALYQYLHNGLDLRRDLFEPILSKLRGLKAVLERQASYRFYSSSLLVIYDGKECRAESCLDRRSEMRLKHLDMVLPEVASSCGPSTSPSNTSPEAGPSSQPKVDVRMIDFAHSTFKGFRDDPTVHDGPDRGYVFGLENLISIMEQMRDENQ
experiment.summary: IP6K1 high-throughput screen of the Sigma LOPAC (ADP-Glo Max, single point);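 note: final compound concentration 10µM in 5% DMSO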
Assay type: biochemical
protocol.conditions: LOPAC single-point screen, ADP-Glo Max raw signal per well
Structures can show the parent of a compound that is named as a salt.
measurement.kind: Raw Signal
Please give the numeric answer without any surrounding text.

Examples with answers:
molecule	measured.target	Raw Signal
O=C(O)Cc1ccccc1Nc1c(Cl)cccc1Cl [Diclofenac sodium]	Human IP6K1 (Homo sapiens, UniProt Q92551)	53274
CNCCCC12CCC(c3ccccc31)c1ccccc12 [Maprotiline hydrochloride]	Human IP6K1 (Homo sapiens, UniProt Q92551)	54786
CCCCCCC(C)(C)c1ccc([C@@H]2C[C@H](O)CC[C@H]2CCCO)c(O)c1	Human IP6K1 (Homo sapiens, UniProt Q92551)	55459
N[C@]1(C(=O)O)CC[C@H](C(=O)O)C1 (racemic) [trans-(±)-ACPD]	Human IP6K1 (Homo sapiens, UniProt Q92551)	56973
C[N+]1(C)CCc2cc3c(cc2[C@H]1[C@@H]1OC(=O)c2c1ccc1c2OCO1)OCO3.[Br-] [(-)-Bicuculline methbromide, 1(S), 9(R)]	Human IP6K1 (Homo sapiens, UniProt Q92551)	56332
C=CCN1CC[C@]23CCCC[C@H]2[C@H]1Cc1ccc(O)cc13 [Levallorphan tartrate]	Human IP6K1 (Homo sapiens, UniProt Q92551)	52542
CCCCC/C=C\C/C=C\C/C=C\C/C=C\CCCC(=O)NCC(=O)O	Human IP6K1 (Homo sapiens, UniProt Q92551)	55672
N#CC(=C(/N)Sc1ccccc1N)/C(C#N)=C(/N)Sc1ccccc1N	Human IP6K1 (Homo sapiens, UniProt Q92551)	55334

Provide Raw Signal value for the following molecule: CC[N+](C)(C)Cc1ccccc1Br [Bretylium tosylate] 56921

Please give measured Raw Signal of the following entry: N=C(N)NC(=O)Cc1c(Cl)cccc1Cl [Guanfacine hydrochloride] 54831

Note down Raw Signal recorded for CCN(CC)C(=S)SSC(=S)N(CC)CC [Tetraethylthiuram disulfide] 54661

Note down Raw Signal recorded for O=C(O)c1nn(Cc2ccc(Cl)cc2Cl)c2ccccc12 56276

Fill in Raw Signal for record CC(C)C(=O)c1c(C(C)C)nn2ccccc12 53701

Provide measured Raw Signal value, entry: CC[C@@H](CO)NC(=O)[C@@H]1C=C2c3cccc4c3c(cn4C)C[C@H]2N(C)C1 [Methysergide maleate] 55881
